Exercise: for every item that follows, state its recorded IC50.
# Tested on: CCRF-CEM
# experiment.summary: Cytostatic activity to the compound against CEM cell line
# Type: functional, cell-based
# test.parameters: Homo sapiens

For orientation, consider the following solved cases.
[
  {
    "molecule": "NC(=O)C[C@@H]1NC(=O)[C@H](N)[C@H](O)c2ccc(cc2)Oc2cc3cc(c2O)Oc2ccc(cc2)[C@@H](O)[C@@H]2NC(=O)[C@H](NC(=O)[C@@H]3NC1=O)c1ccc(O)c(c1)-c1c(O)cc(O)cc1[C@@H](C(=O)NCC13CC4CC(CC(C4)C1)C3)NC2=O",
    "measured.target": "CCRF-CEM",
    "value.observed": "≥ 250 µM"
  },
  {
    "molecule": "CN[C@H](CC(C)C)C(=O)N[C@H]1C(=O)N[C@@H](CC(N)=O)C(=O)N[C@H]2C(=O)N[C@H]3C(=O)N[C@H](C(=O)N[C@H](C(=O)NC4C5CC6CC(C5)CC4C6)c4cc(O)cc(O)c4-c4cc3ccc4O)[C@H](O)c3ccc(cc3)Oc3cc2cc(c3O)Oc2ccc(cc2Cl)[C@H]1O (some centres undefined)",
    "measured.target": "CCRF-CEM",
    "value.observed": "> 250 µM"
  },
  {
    "molecule": "NC(=O)C[C@@H]1NC(=O)[C@H](N)[C@H](O)c2ccc(c(Cl)c2)Oc2cc3cc(c2O)Oc2ccc(cc2Cl)[C@@H](O)[C@@H]2NC(=O)[C@H](NC(=O)[C@@H]3NC1=O)c1ccc(O)c(c1)-c1c(O)cc(O)cc1[C@@H](C(=O)NCC13CC4CC(CC(C4)C1)C3)NC2=O",
    "measured.target": "CCRF-CEM",
    "value.observed": "≥ 250 µM"
  }
]

Entry under test: CN[C@H](CC(C)C)C(=O)N[C@H]1C(=O)N[C@@H](CC(N)=O)C(=O)N[C@H]2C(=O)N[C@H]3C(=O)N[C@H](C(=O)N[C@H](C(=O)O)c4cc(O)cc(O)c4-c4cc3ccc4O)[C@H](O)c3ccc(cc3)Oc3cc2cc(c3O)Oc2ccc(cc2Cl)[C@H]1O . Its IC50 was > 500 µM
